- testDescription: qHTS for Inhibitors of the Functional Ribonucleoprotein Complex (vRNP) of Lassa (LASV) Arenavirus: Viability assay - alamar blue signal for LASV Primary Screen (AID 1347083); also: nearly all actives have a fitted effect of over 80% in size
- conditionLabel: cell viability, alamar blue fluorescence (LASV minigenome counter-screen); series mostly up to 57.5 µM
Results filed as inconclusive are left out. Activity calls are given as the source filed them. Calls follow the shape of the full dose curve; tested in HEK293 reporter line.
Just give me one of these, please: active, inactive

Use these answered entries as a reference point.
| molecule | categoryLabel |
| --- | --- |
| C=C1CCC2[C@](C)(CO)C(O)CC[C@]2(C)C1CC=C1C(=O)OCC1O (stereo partly drawn) | inactive |
| Oc1ccc(C=Cc2cc(O)cc(O)c2)cc1 | inactive |
| CCC/C=C/C/C=C/C=C/C=N/NN=O | inactive |

GET /call?item= CC(=O)O[C@@H]1[C@H]2CC[C@@H]3[C@]1(C[C@@H](OC(C)=O)[C@@]1(O)C([C@@H]4O[C@@H]4C1(C)C)[C@]3(C)O)C[C@@]2(C)O (stereo partly drawn) returns the recorded outcome of this test.
inactive

Recorded call for COc1cc(SC)ccc1C(=O)N1CCC(Cc2ccccc2)CC1 ?
inactive

Tell me the recorded outcome of this test for CC1=CC2OC3CC4OC(=O)C=CC=CC(C(C)O)OCC(O)C5(C)OC5C(=O)OCC2(CC1O)C4(C)C31CO1 (stereo not drawn) .
inactive

Fill in: this test's call for Oc1ccc(C2CCN(c3ccnc4ccccc34)CC2)cc1O is ___
active

Lab log entry: CC[C@@]1([C@@H]2O[C@@H]([C@H]3O[C@@](O)(CO)[C@H](C)C[C@H]3C)C[C@H]2C)CC[C@H]([C@]2(C)CC[C@]3(C[C@H](O)[C@@H](C)[C@@H]([C@@H](C)[C@@H](OC)[C@H](C)C(=O)O)O3)O2)O1 — outcome as called in the assay?
active

====

- measuredOn: Nucleoprotein (Lymphocytic choriomeningitis virus (strain Armstrong)) (UniProt P09992)
- Sequence (P09992 whole entry, looked up): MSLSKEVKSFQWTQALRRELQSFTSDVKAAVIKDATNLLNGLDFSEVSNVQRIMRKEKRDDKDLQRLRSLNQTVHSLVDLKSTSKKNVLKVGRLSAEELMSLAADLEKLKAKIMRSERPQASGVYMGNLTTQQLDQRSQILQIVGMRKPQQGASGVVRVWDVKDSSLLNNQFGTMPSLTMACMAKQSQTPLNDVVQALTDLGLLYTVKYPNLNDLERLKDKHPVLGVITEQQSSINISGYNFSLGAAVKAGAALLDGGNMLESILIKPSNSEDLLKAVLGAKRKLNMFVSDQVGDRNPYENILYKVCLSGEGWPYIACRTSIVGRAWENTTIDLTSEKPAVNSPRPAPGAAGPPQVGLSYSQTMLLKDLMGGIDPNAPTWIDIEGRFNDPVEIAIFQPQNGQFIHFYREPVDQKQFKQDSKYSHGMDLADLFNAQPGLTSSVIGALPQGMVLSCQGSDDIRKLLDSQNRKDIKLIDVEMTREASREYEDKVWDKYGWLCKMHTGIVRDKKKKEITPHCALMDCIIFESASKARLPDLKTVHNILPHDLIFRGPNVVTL
- testDescription: qHTS for Inhibitors of the Functional Ribonucleoprotein Complex (vRNP) of Lymphocytic Choriomeningitis Arenaviruses (LCMV): LCMV Primary Screen - GLuc reporter signal (AID 1347086); also: nearly all actives have a fitted effect of over 70% in size
- conditionLabel: LCMV minigenome vRNP cell assay, Gaussia luciferase reporter; series mostly up to 57.5 µM
Inconclusive results are not listed. Activity calls are given as the source filed them. The call rests on the fitted dose curve.
readout: outcome

Here's what some known entries look like.
| compound | outcome |
| --- | --- |
| CC(C)CN(C[C@H](O)[C@H](Cc1ccccc1)NC(=O)O[C@H]1CCOC1)S(=O)(=O)c1ccc(N)cc1 | inactive |
| Fc1ccc(C(c2ccc(F)cc2)N2CCN(CC=Cc3ccccc3)CC2)cc1 | inactive |
| CC/C=C\CCCCCO | inactive |
| ClC1=C(Cl)[C@]2(Cl)[C@@H]3[C@@H](Cl)[C@H]4O[C@H]4[C@@H]3C1(Cl)C2(Cl)Cl | inactive |

Short answer for CCCC(=O)OCCC(C)CCC=C(C)C (stereo not given) : outcome was inactive

====

- testDescription: Cytotoxicity counterscreen for inhibitors of SARS-CoV-2 cell entry (AID 1645845); also: nearly all actives have a fitted effect of over 50% in size
- conditionLabel: cell viability (SARS-CoV-2 entry assay cells); series mostly up to 57.1 µM
Inconclusive results are not listed. The source made the active and inactive calls. Calls come from the whole dose curve.
readout: outcome

Use the examples below as a reference point.
| compound | outcome |
| --- | --- |
| CC(O)[C@H]1CC[C@H]2[C@@H]3CC[C@@H]4C[C@@H](O)CC[C@]4(C)[C@H]3CC[C@]12C (stereo not given in full) | inactive |
| CCCCCCCC(=O)O | inactive |
| OC1CCC(Nc2ncc3nc(Nc4c(F)cc(F)cc4F)n([C@@H]4CCOC4)c3n2)CC1 (stereo not given in full) | inactive |
| COc1ccc(C2CC(c3ccccc3)=NN2c2ccc(S(N)(=O)=O)cc2)cc1 (stereo not given) | inactive |

From here, focus on the item given below.
Short answer for Nc1nc(OCc2ccccc2)c2[nH]cnc2n1 : outcome was inactive
